- System: HuT78
- protocol_details: Pro-apoptotic activity in human HUT78 cells after 18 hrs by caspase-Glo 3/7 assay
- Format: functional, cell-based
- reported_conditions: HuT78, 18 h
Can you tell me EC50 for the items I'm about to list?
Please give a number only; it is taken to be in nM.

Exercise: Under HuT78: report EC50 of COc1ccc(Nc2c(NC(C)(C)CCCCC(=O)NO)c(=O)c2=O)cc1 .
Key: 5.5

Exercise: Under HuT78: report EC50 of CC(CCCCC(=O)NO)Nc1c(Nc2ccc(C(F)(F)F)cc2)c(=O)c1=O (racemic) .
Key: 18

Exercise: Under HuT78: report EC50 of COc1ccc(Nc2c(NC(C)CCCCC(=O)NO)c(=O)c2=O)cc1 (racemic) .
Key: 12

Exercise: Under HuT78: report EC50 of O=C(CCCCCNc1c(NC2CCCCC2)c(=O)c1=O)NO .
Key: 84

Exercise: Under HuT78: report EC50 of Cc1cccc([C@@H](C)Nc2c(NCCCCCC(=O)NO)c(=O)c2=O)c1 .
Key: 160

Exercise: Under HuT78: report EC50 of C[C@H](CCCCC(=O)NO)Nc1c(Nc2ccc3cc(C(F)(F)F)[nH]c3c2)c(=O)c1=O .
Key: 7.2

Exercise: Under HuT78: report EC50 of CC(C)(Nc1c(NCCCCCC(=O)NO)c(=O)c1=O)c1ccccc1 .
Key: 1100

Exercise: Under HuT78: report EC50 of CN(C)c1ccc(Nc2c(NCCCCCC(=O)NO)c(=O)c2=O)cc1 .
Key: 6.2

Exercise: Under HuT78: report EC50 of COc1cc(Nc2c(NCCCCCC(=O)NO)c(=O)c2=O)ccc1N(C)C .
Key: 290

Exercise: Under HuT78: report EC50 of CC(Nc1c(NCCCCCC(=O)NO)c(=O)c1=O)C12CC3CC(CC(C3)C1)C2 (configuration not stated) .
Key: 98

Exercise: Under HuT78: report EC50 of CC(CCCCC(=O)NO)Nc1c(Nc2ccccc2)c(=O)c1=O (racemic) .
Key: 32

Exercise: Under HuT78: report EC50 of CC(C)(CCCCC(=O)NO)Nc1c(Nc2ccc(C(F)(F)F)cc2)c(=O)c1=O .
Key: 7.3

Exercise: Under HuT78: report EC50 of Cc1ccc(Nc2c(NCCCCCC(=O)NO)c(=O)c2=O)cc1 .
Key: 1.7

Exercise: Under HuT78: report EC50 of Cc1ccccc1Nc1c(NCCCCCC(=O)NO)c(=O)c1=O .
Key: 280

Exercise: Under HuT78: report EC50 of C[C@H](Nc1c(NCCCCCC(=O)NO)c(=O)c1=O)c1ccccc1 .
Key: 220

Exercise: Under HuT78: report EC50 of Cc1cccc(Nc2c(NCCCCCC(=O)NO)c(=O)c2=O)c1 .
Key: 26

Exercise: Under HuT78: report EC50 of Cc1ccc(Nc2c(NC(C)CCCCC(=O)NO)c(=O)c2=O)cc1 (racemic) .
Key: 5.6

Exercise: Under HuT78: report EC50 of CC[C@H](Nc1c(NCCCCCC(=O)NO)c(=O)c1=O)c1ccccc1 .
Key: 170

Exercise: Under HuT78: report EC50 of Cc1ccc([C@H](C)Nc2c(NCCCCCC(=O)NO)c(=O)c2=O)cc1 .
Key: 130

Exercise: Under HuT78: report EC50 of CC(C)C(CCCCC(=O)NO)Nc1c(Nc2ccc(C(F)(F)F)cc2)c(=O)c1=O (racemic) .
Key: 280

Exercise: Under HuT78: report EC50 of O=C(CCCCNc1c(Nc2ccccc2)c(=O)c1=O)NO .
Key: 290

Exercise: Under HuT78: report EC50 of C[C@@H](Nc1c(NCCCCCC(=O)NO)c(=O)c1=O)c1ccccc1 .
Key: 100

Exercise: Under HuT78: report EC50 of Cc1[nH]c2ccccc2c1CCNCc1ccc(/C=C/C(=O)NO)cc1 [PANOBINOSTAT] .
Key: 4.3

Exercise: Under HuT78: report EC50 of O=C(CCCCCNc1c(NCc2ccccc2)c(=O)c1=O)NO .
Key: 270

Exercise: Under HuT78: report EC50 of C[C@H](CCCCC(=O)NO)Nc1c(Nc2ccc(N(C)C)cc2)c(=O)c1=O .
Key: 13

Exercise: Under HuT78: report EC50 of C[C@H](CCCCC(=O)NO)Nc1c(Nc2ccc(OC(F)(F)F)cc2)c(=O)c1=O .
Key: 10

Exercise: Under HuT78: report EC50 of O=C(CCCCCNc1c(Nc2ccccc2)c(=O)c1=O)NO .
Key: 28

Exercise: Under HuT78: report EC50 of Cc1cc2ccc(Nc3c(NCCCCCC(=O)NO)c(=O)c3=O)cc2[nH]1 .
Key: 28

Exercise: Under HuT78: report EC50 of C[C@@H](CCCCC(=O)NO)Nc1c(Nc2ccc(N(C)C)cc2)c(=O)c1=O .
Key: 44

Exercise: Under HuT78: report EC50 of CCC(CCCCC(=O)NO)Nc1c(Nc2ccc(C(F)(F)F)cc2)c(=O)c1=O (racemic) .
Key: 21

Exercise: Under HuT78: report EC50 of COc1ccc(Nc2c(NC3(CCCCC(=O)NO)CCC3)c(=O)c2=O)cc1 .
Key: 12

Exercise: Under HuT78: report EC50 of Cn1cc(CNCC2CCN(c3ncc(C(=O)NO)cn3)CC2)c2ccccc21 [QUISINOSTAT] .
Key: 6.5

Exercise: Under HuT78: report EC50 of O=C(CCCCCNc1c(Nc2ccc(C(F)(F)F)cc2)c(=O)c1=O)NO .
Key: 4

Exercise: Under HuT78: report EC50 of O=C(CCCCC(Cc1ccccc1)Nc1c(Nc2ccc(C(F)(F)F)cc2)c(=O)c1=O)NO (racemic) .
Key: 38

Exercise: Under HuT78: report EC50 of Cc1ccccc1[C@H](C)Nc1c(NCCCCCC(=O)NO)c(=O)c1=O .
Key: 560

Exercise: Under HuT78: report EC50 of COc1ccc(Nc2c(NCCCCCC(=O)NO)c(=O)c2=O)cc1 .
Key: 4.9

Exercise: Under HuT78: report EC50 of O=C(CCCCCCNc1c(Nc2ccccc2)c(=O)c1=O)NO .
Key: 26
